Tested on: SF-295 CNS
test: NCI-60 one-dose screen, 48 h (100 = growth as untreated, 0 = no growth, -100 = all killed)
experimentalSetup: 10 µM unless noted
The panel holds about 83,000 compounds, 20% with a hit somewhere; the sample as a whole holds those more often.
observedProperty: growth (%)
Give the value, in units of %, as a plain number.

For orientation, consider the following solved cases.
{"columns": ["molecule", "growth (%)"],
 "data": [
  ["COc1ccc(/C=C/c2ccc3ccccc3n2)c(OC)c1", 60.2],
  ["Cc1ccc(-c2nc(/C=C3/C(=O)Nc4ccc(F)cc43)c3ccccn23)cc1", 76],
  ["CCN1C(=O)N(CC)C2C1NN=c1s/c(=C\\c3ccc[nH]3)c(=O)n12 (stereo not given)", 12.4],
  ["COC(=O)CCC/C=C\\C[C@H]1C=CC(=O)/C1=C/C[C@@H](O)C/C=C\\CC(F)(F)F", -1.18],
  ["CCN1CCN(C(=O)[C@]23CC[C@@H](C)[C@H](C)[C@@H]2C2=CC[C@@H]4[C@@]5(C)C/C(=C/c6cccnc6)C(=O)C(C)(C)[C@@H]5CC[C@@]4(C)[C@]2(C)CC3)CC1", 37.3]
]}

stdin: Could you tell me which growth is on file for `Cc1ncc(C(=O)Nc2ccc(CN3CCN(C)CC3)c(C(F)(F)F)c2)cc1C#Cc1cnc(N)c2ncccc12` ?
stdout: 48.8

stdin: Next up: C=CCOC(=O)C1=C(C)N(CC)C(=O)NC1c1c(Cl)n(C)c2ccccc12 (stereo not given)
stdout: 88.6

stdin: Next up: `O=C(O)c1ccc(-c2ccc(/C=N/Nc3nc(Nc4ccccc4)nc(N4CCCCC4)n3)o2)cc1`
stdout: -21.9

stdin: Next up: `Fc1cccc(-c2ccc3c(c2)C2(CCNCC2)CN3)c1`
stdout: 95.4

stdin: Next up: `CN1CCN(c2ccc(NC(=O)c3cncnc3Nc3ccc(OCc4cccc(F)c4)c(Cl)c3)cc2)CC1`
stdout: 99.8

stdin: Next up: `COc1cccc(/C=N/NC(=O)c2ccccc2N2CCCC2)c1O`
stdout: 86.2

stdin: Next up: `N#Cc1c(-c2ccccc2)nc(SCc2nnc(-c3ccc(Cl)cc3)o2)[nH]c1=O`
stdout: 89.5

stdin: Next up: COc1ccc(C2=CN3CC=CC3CC2=O)cc1 (stereo not given)
stdout: 93.3

stdin: Next up: `CCOc1ccc(-n2nc(C(=O)NCc3ccccc3OC)nc2-c2cc(OC)c(OC)c(OC)c2)cc1`
stdout: 34.8

stdin: Next up: `Oc1ccc(/C=C/c2ccc(O)cc2)cc1`
stdout: 88.1

* * *

Test system: MOLT-4 leukemia
test: NCI-60 one-dose screen, 48 h
experimentalSetup: 10 µM unless noted
This is part of a sample that, as a whole, favours compounds with a hit. Of some 83,000 tested, about 20% had one in any assay. Active and inactive are the calls of the source. How the source made its calls: active means growth percent below 10; inactive means the rest.
Respond using exactly one of the listed classes: 1 for active, -1 for inactive

{"columns": ["molecule", "classAssignment"],
 "data": [
  ["CCN(CC)Cc1cc(Nc2ccnc3cc(Cl)ccc23)ccc1O", -1],
  ["CS(=O)(=O)c1ccc(NC(=O)c2ccccc2)nc1", -1],
  ["CCOc1c(OC)cc2c(c1O)C(=O)N[C@@H]1[C@@H](O)[C@@H](O)[C@H](O)C[C@@H]21", -1]
]}

stdin: // outcome(item) with item = `NC1=Nc2cc(OCCCCN3Cc4ccccc4C3)c(OCC3CC3)cc2C12CCCC2`
stdout: -1

stdin: Next up: `O=C(Nc1cnc(Nc2ccc(N3CCOCC3)nc2)nc1Oc1ccc(C(F)(F)F)cc1)c1ccncc1`
stdout: -1

stdin: Next up: `N#Cc1c(Nc2ccc(N3CCOCC3)cc2)nc(SCC(=O)c2ccc(Br)cc2)nc1-c1ccccc1`
stdout: -1

stdin: Next up: `[2H]C([2H])([2H])Oc1ccc(F)cc1/C=C/C(=O)/C=C(O)/C=C/c1cc(F)ccc1OC([2H])([2H])[2H]`
stdout: -1

stdin: Next up: `Cc1ncc(C(=O)Nc2ccc(CN3CCN(C)CC3)c(C(F)(F)F)c2)cc1C#Cc1cnc(N)c2ncccc12`
stdout: 1

stdin: Next up: `Clc1ccc(-c2cc(-c3ccccc3)nc(NCCNc3ccnc4cc(Cl)ccc34)n2)cc1`
stdout: 1

stdin: Next up: `COc1cc(NC(=O)c2cncnc2Nc2ccc3c(ccn3Cc3ccccn3)c2)cc(OC)c1`
stdout: -1

stdin: Next up: `c1ccc2c(c1)CCCc1nnc3nc4ccccc4n3c1-2`
stdout: -1

stdin: Next up: `CCN1CCN(CC(=O)Nc2ccc(-c3cn4c(n3)sc3cc(Oc5ccnc(C(=O)NC)c5)ccc34)cc2)CC1`
stdout: -1

* * *

System: MOLT-4 leukemia
test: NCI-60 one-dose screen, 48 h
experimentalSetup: 10 µM unless noted
This is part of a sample that, as a whole, favours compounds with a hit. Of some 83,000 tested, about 20% had one in any assay. The source made the active and inactive calls. How the source made its calls: active means growth percent below 10; inactive means the rest.
Respond using exactly one of the listed classes: y (active), n (inactive)

Solved entries (count: 5):
{"columns": ["compound", "classAssignment"],
 "data": [
  ["CCCCNC(=O)Oc1ccc(/C(=C(/C)Cc2ccc(OC)cc2)c2ccc(OCCN3CCCCC3)cc2)cc1", "n"],
  ["O=C1c2ccccc2C(=O)C1c1ccc(Br)cc1", "n"],
  ["CN1C(=O)/C(=C2\\SC(=Nc3ccccc3)N(Nc3ccccc3)C2=O)c2ccccc21", "n"],
  ["CN1CCN(C(=O)[C@@]2(C)CC[C@]3(C)CC[C@]4(C)C(=CC[C@@H]5[C@@]6(C)CCC(=O)NC(C)(C)[C@@H]6CC[C@]54C)[C@@H]3C2)CC1", "n"],
  ["CCCn1nc(C(=O)N(C)Cc2ccccc2)c2c1CCC(N1CCc3ccccc31)C2 (configuration not stated)", "n"]
]}

stdin: // outcome(item) with item = `C[C@@H]1O[C@@H](O[C@@H]2C[C@H](c3ccc4c(c3O)C(=O)C3=C(C4=O)[C@@]4(O)C(=O)C[C@](C)(O)C[C@@]4(O)C=C3)O[C@H](C)[C@H]2O)CC[C@@H]1O[C@H]1C[C@@H](O)[C@H](O)[C@@H](C)O1`
stdout: n

stdin: Next up: `O=C(Nc1ccccc1O)c1ccc(CNC(=O)c2ccsc2Nc2ccnc(C(F)(F)F)c2)cc1`
stdout: y

* * *

Test system: CAKI-1 renal
test: NCI-60 one-dose screen, 48 h
experimentalSetup: 10 µM unless noted
Experimental: Growth inhibition of the CAKI-1 human tumor cell line is measured as a screen for anti-cancer activity. Cells are grown in 96 well plates and exposed to the test compound for 48 hours. Compounds are tested at a single concentration, which is 10^-5 M for most compounds. The reported endpoint is percent growth (GI% or GIPRCNT), where numbers from 0 - 100% represent growth inhibition, and numbers from -100% - 0 represent cell death. For example, a value of 40 represents 60% growth inhibition. […]
This is part of a sample that, as a whole, favours compounds with a hit. Of some 83,000 tested, about 20% had one in any assay. Calls of active or inactive are those of the source. The calls were made as follows: active = growth percent below 10; inactive = the rest.
Respond using exactly one of the listed classes: yes for active, no for inactive

Solved entries (count: 5):
{"columns": ["compound", "classAssignment"],
 "data": [
  ["Cc1ccc(-c2csc(NC(=O)c3ccccc3CN3C(=O)c4ccccc4C3=O)n2)cc1", "no"],
  ["CN(C)S(=O)(=O)Oc1ccc(-c2sc3cc(OS(=O)(=O)N(C)C)ccc3c2C(=O)c2ccc(OCCN3CCCCC3)cc2)cc1", "no"],
  ["COc1cccc(NCc2nnc(Nc3ccc(Cl)cc3)c3ccccc23)c1", "yes"],
  ["C#CCn1cnc2cnc(Nc3cccc(NC(=O)C=C)c3)nc21", "no"],
  ["CC1(C)NCCC[C@]2(C)[C@H]3CC[C@H]4[C@H]5[C@H](C(=O)/C=C/c6cccnc6)CCC[C@]5(CO)CC[C@@]4(C)[C@]3(C)CC[C@@H]12", "no"]
]}

stdin: // outcome(item) with item = `O=C(Cc1ccc(NC(=O)c2cccc(Cl)c2)cc1)NCc1ccccc1`
stdout: no

stdin: Next up: `CN(Cc1cc(Br)cc(Br)c1O)Cc1cc(Br)cc(Br)c1O`
stdout: no

stdin: Next up: `O=C1c2ccccc2C(=O)c2c1c(C(=O)NCc1ccccc1)c1ccccn21`
stdout: no

stdin: Next up: `N#C/C(=C\c1cn(Cc2ccccc2)c2ccccc12)C(=O)Nc1ncc(Cc2ccccc2Cl)s1`
stdout: yes

stdin: Next up: `Cc1ccc(/C=C/C(=O)Nc2ncc(Cc3ccc(F)cc3)s2)o1`
stdout: no

stdin: Next up: CCN1C(=O)N(CC)C2C1NN=c1s/c(=C\c3ccc(C(F)(F)F)cc3)c(=O)n12 (stereo not drawn)
stdout: no

stdin: Next up: `O=C(N/N=C\c1ccccc1S(=O)(=O)O)N/N=C/c1ccccc1S(=O)(=O)O`
stdout: no

stdin: Next up: `O=C(C1=Cc2cc3ccccc3n2Cc2cnnn21)c1ccc(O)cc1`
stdout: no
